Data provenance: PubChem BioAssay (NCI)

Tested on: DU-145 prostate
Assay: NCI tumour cell line growth inhibition, 48 h

>  <Mol Smiles>
Cc1c(C)c2c(c(N)c1C#N)C(=O)N(Nc1ccccc1)C2=O

>  <TGI>
> 100 µM

$$$$
>  <Mol Smiles>
CC(C)(C)c1cc(-c2cc(C(C)(C)C)n(-c3ccccc3)n2)nn1-c1ccccc1

>  <TGI>
> 100 µM

$$$$
>  <Mol Smiles>
CCOC(=O)N1CCc2cc(OC)c(OC)c3c2c1cc1cc(OC)c(OC)cc13

>  <TGI>
> 100 µM

$$$$

###

Test system: COLO 205 colon
Assay: NCI tumour cell line growth inhibition, 48 h

>  <Molecule>
Nc1nc(N)c(NC(=O)CCCO)c(=O)[nH]1

>  <TGI>
> 100 µM

$$$$
>  <Molecule>
c1ccc(N=C(Nc2ccccc2)N2CCCCC2)cc1

>  <TGI>
> 100 µM

$$$$
>  <Molecule>
COc1ccc(C(=O)Cc2c(C(=O)c3ccccc3)c3ccccc3n2C(=O)c2ccccc2)cc1

>  <TGI>
> 100 µM

$$$$
>  <Molecule>
COc1ccc(-n2nnnc2-c2c[nH]c3c(F)cc(F)cc23)cc1

>  <TGI>
> 100 µM

$$$$
>  <Molecule>
O=C1NC(=O)C2C(=O)NC(=O)C1C2(c1ccccc1)c1cc[nH]c1 (configuration not stated)

>  <TGI>
> 100 µM

$$$$
>  <Molecule>
CC(C)(C)OC(=O)c1cnc(Cl)cn1

>  <TGI>
> 100 µM

$$$$
>  <Molecule>
CC(=O)OCC1OC(n2c(-c3ccccc3)c(C(C)=O)c(-c3ccc(Cl)cc3)c(C#N)c2=S)C(OC(C)=O)C(OC(C)=O)C1OC(C)=O (configuration not stated)

>  <TGI>
> 100 µM

$$$$
>  <Molecule>
CN(C(=O)C12C3C4C1C1C4(C(=O)C45C6C7C4C4C5C6C74C)C3C12C)C(C)(C)C (configuration not stated)

>  <TGI>
> 100 µM

$$$$
>  <Molecule>
O=c1cc2ccccc2nn1Cc1cccc(Cl)c1

>  <TGI>
> 100 µM

$$$$
>  <Molecule>
O=C1CCC(=O)N1Cc1ccccc1N=[N+]([O-])c1ccccc1CN1C(=O)CCC1=O

>  <TGI>
> 100 µM

$$$$
>  <Molecule>
O=C(Nc1cc(Cl)cc(Cl)c1)c1ccc(NC2=C(Cl)C(=O)N(Cc3ccc(Cl)cc3Cl)C2=O)cc1

>  <TGI>
35.4 µM

$$$$
>  <Molecule>
Ic1ccccc1-c1ccccc1

>  <TGI>
> 100 µM

$$$$
>  <Molecule>
O=C1c2cc3c(cc2-c2c1c1ccc(Cl)cc1c(=O)n2CCCNCCO)OCO3

>  <TGI>
2.6 µM

$$$$
>  <Molecule>
Clc1cc(Cc2cc(Cl)c(Cl)c3c2OCOC3)c2c(c1Cl)COCO2

>  <TGI>
> 100 µM

$$$$
>  <Molecule>
CC(C)(C)c1cc(-c2cc(C(C)(C)C)n(-c3ccccc3)n2)nn1-c1ccccc1

>  <TGI>
> 100 µM

$$$$
>  <Molecule>
CCN=C(NNc1ccc([N+](=O)[O-])cc1)P(=O)(OC(C)C)OC(C)C

>  <TGI>
> 100 µM

$$$$
>  <Molecule>
CCOP(=O)(CCCC(O)CNc1cc(Cl)nc(N)n1)OCC (configuration not stated)

>  <TGI>
> 100 µM

$$$$
>  <Molecule>
BrC1=CC=C2NC=CC3=CC=NC1C32 (configuration not stated)

>  <TGI>
58.5 µM

$$$$
>  <Molecule>
CCCCc1c2c(nc3c1CCCC3O)CCCC2 (configuration not stated)

>  <TGI>
> 100 µM

$$$$
>  <Molecule>
COC(=O)c1c2c(c(C)[n+]([O-])c1C)C(=O)C=C(NCc1ccc(F)c(Cl)c1)C2=O

>  <TGI>
0.863 µM

$$$$
>  <Molecule>
O=C1C=C(Sc2ccccc2)c2nccc3c2c1nc1ccccc13

>  <TGI>
31.5 µM

$$$$
>  <Molecule>
CC(=O)OC1COC(Nc2ccc(C(C)=O)cc2)C(OC(C)=O)C1OC(C)=O (configuration not stated)

>  <TGI>
> 100 µM

$$$$
>  <Molecule>
CCOC(=O)C12CCC(=O)C=C1[C@@H](C)C(=O)CC2 (some centres not stated)

>  <TGI>
> 100 µM

$$$$
>  <Molecule>
O=C(CCc1ccccc1)ON1C(=S)NC(c2ccccc2)(c2ccccc2)C1=S

>  <TGI>
> 100 µM

$$$$
>  <Molecule>
O=C(CC(C(=O)c1ccco1)c1ccsc1)c1ccco1 (configuration not stated)

>  <TGI>
> 100 µM

$$$$
>  <Molecule>
CC(=O)[CH-]C(=O)c1ccccc1.CC(=O)[CH-]C(=O)c1ccccc1.CC(C)CCCC(C)[C@H]1CCC2[C@@H]3CC=C4C[C@@H]([O-])CC[C@]4(C)C3CC[C@@]21C.CC[O-].[Ti+4] (some centres not stated)

>  <TGI>
> 100 µM

$$$$
>  <Molecule>
C=C(C)C1Cc2c(cc(O)c3c(=O)c4c(oc23)C(O)Oc2cc(OC)c(OC)cc2-4)O1 (configuration not stated)

>  <TGI>
> 10 µM

$$$$
>  <Molecule>
CCC(CO)Nc1nc(NCc2ccccc2O)c2ncn(C(C)C)c2n1 (configuration not stated)

>  <TGI>
3.89 µM

$$$$
>  <Molecule>
N=C(c1ccc2ccccc2c1)c1ccccc1Cc1ccccc1

>  <TGI>
> 100 µM

$$$$
>  <Molecule>
Clc1ccc2c(c1)C1C(CO2)C(c2ccccc2)=NN1c1ccccc1 (configuration not stated)

>  <TGI>
> 100 µM

$$$$
>  <Molecule>
COC(=O)c1ccccc1CC1Cc2ccc3c(c2C1)CCC3 (configuration not stated)

>  <TGI>
34.5 µM

$$$$
>  <Molecule>
C=CC(c1ccccc1)[C@@]1(OC(C)=O)C(=O)C(=O)OC1C1COC(C)(C)O1 (some centres not stated)

>  <TGI>
26.5 µM

$$$$
